- Tested on: ACHN
- protocol_summary: Growth inhibition of human ACHN cells assessed as cell growth at 0.01 uM incubated for 48 hrs by sulforhodamine B assay relative to control
- Format: functional
- experimental_parameters: read-out: Activity
parameter: growth at 0.01 µM (%)
Answer in %, number only, no unit symbol.

Examples from the recorded data:
Cc1cccc(NC(=O)c2sc3nc4c(cc3c2N)C(=O)CCC4)c1; 90
CCc1cccc(C)c1NC(=O)c1sc2nc3c(cc2c1N)C(=O)CCC3; 94
COc1cccc(NC(=O)c2sc3nc4c(cc3c2N)CN(Cc2ccccc2)CC4)c1; 97
Nc1c(C(=O)Nc2ccccc2)sc2nc3c(cc12)CN(Cc1ccccc1)CC3; 101
Cc1cc(C)c(NC(=O)c2sc3nc4c(cc3c2N)CN(Cc2ccccc2)CC4)c(C)c1; 97
Cc1ccc(NC(=O)c2sc3nc4c(cc3c2N)C(=O)CCC4)cc1C; 98

Moving on to another molecule below.
Hi! What's the reported growth at 0.01 µM for CCc1ccccc1NC(=O)c1sc2nc3c(cc2c1N)C(=O)CCC3 on ACHN?
93
